Cited source for all entries: patent US11160797B2

target: wild-type ALK2 (aa172-499) (Homo sapiens (Human)); assay: ADPGlo biochemical autophosphorylation assay, ALK2; conditions: 15 uM ATP
Sequence (Q04771 172-499): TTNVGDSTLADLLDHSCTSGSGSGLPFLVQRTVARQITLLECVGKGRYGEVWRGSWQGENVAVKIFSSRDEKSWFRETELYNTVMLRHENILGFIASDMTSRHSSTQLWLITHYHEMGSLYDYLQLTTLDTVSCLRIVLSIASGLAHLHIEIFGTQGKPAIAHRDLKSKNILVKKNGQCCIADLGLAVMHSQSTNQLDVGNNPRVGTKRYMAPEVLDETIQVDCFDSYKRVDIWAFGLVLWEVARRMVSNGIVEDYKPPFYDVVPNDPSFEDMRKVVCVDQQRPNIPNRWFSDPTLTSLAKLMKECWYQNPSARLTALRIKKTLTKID
log10 of IC50 reference
quantity_kind: log10 of IC50 (log10 of the value in nM)

compound: CC(C)N1C(=O)Cc2cc(-c3cncc(-c4ccc(=O)n(C(C)C)c4)c3)ccc21 [Example 21]
tested_system: wild-type ALK2 (aa172-499) (Homo sapiens (Human))
log10 of IC50: 1.81
--
compound: CN1C(=O)Cc2cc(-c3cncc(-c4ccc(=O)n(CC(F)(F)F)c4)c3)ccc21 [Example 12]
tested_system: wild-type ALK2 (aa172-499) (Homo sapiens (Human))
log10 of IC50: 3.18
--
compound: CCC(CC)n1cc(-c2cncc(-c3ccc4c(c3)CC(=O)N4C)c2)ccc1=O [Example 4]
tested_system: wild-type ALK2 (aa172-499) (Homo sapiens (Human))
log10 of IC50: 3.11
--
compound: Cc1cc(-c2cncc(-c3ccc(=O)n(C(C)C)c3)c2)cc2c1N(C)C(=O)C2 [Example 35]
tested_system: wild-type ALK2 (aa172-499) (Homo sapiens (Human))
log10 of IC50: 2.04
--
compound: CN1C(=O)Cc2cc(-c3cncc(-c4ccc(=O)n(CC5CCC5)c4)c3)ccc21 [Example 11]
tested_system: wild-type ALK2 (aa172-499) (Homo sapiens (Human))
log10 of IC50: 2.78
--
compound: CCN1c2ccc(-c3cncc(-c4ccc(=O)n(C(C)C)c4)c3)cc2CS1(=O)=O [Example 49]
tested_system: wild-type ALK2 (aa172-499) (Homo sapiens (Human))
log10 of IC50: 2.11
--
compound: CCC1C(=O)N(C)c2ccc(-c3cncc(-c4ccc(=O)n(C(C)C)c4)c3)cc21 (centres unmarked) [Example 22]
tested_system: wild-type ALK2 (aa172-499) (Homo sapiens (Human))
log10 of IC50: 2.86
--
compound: CC(C)n1cc(-c2cncc(-c3cc4c(cc3F)N(C)C(=O)C4)c2)ccc1=O [Example 31]
tested_system: wild-type ALK2 (aa172-499) (Homo sapiens (Human))
log10 of IC50: 2.08
--
compound: CC(C)Cn1cc(-c2cncc(-c3ccc4c(c3)CC(=O)N4C)c2)ccc1=O [Example 14]
tested_system: wild-type ALK2 (aa172-499) (Homo sapiens (Human))
log10 of IC50: 2.87
--
compound: CC(C)CN1C(=O)Cc2cc(-c3cncc(-c4ccc(=O)n(C(C)C)c4)c3)ccc21 [Example 24]
tested_system: wild-type ALK2 (aa172-499) (Homo sapiens (Human))
log10 of IC50: 1.83
--
compound: CN1C(=O)Cc2cc(-c3cncc(-c4ccc(=O)n(C5CC5)c4)c3)ccc21 [Example 10]
tested_system: wild-type ALK2 (aa172-499) (Homo sapiens (Human))
log10 of IC50: 2.85
--
compound: CC(C)n1cc(-c2cncc(-c3ccc4c(c3)CC(=O)N4CCCO)c2)ccc1=O [Example 47]
tested_system: wild-type ALK2 (aa172-499) (Homo sapiens (Human))
log10 of IC50: 2.24
--
compound: CCc1cc(-c2cncc(-c3ccc4c(c3)CC(=O)N4C)c2)cn(C(C)C)c1=O [Example 5]
tested_system: wild-type ALK2 (aa172-499) (Homo sapiens (Human))
log10 of IC50: 2.15
--
compound: CCN1C(=O)Cc2cc(-c3cncc(-c4ccc(=O)n(C(C)C)c4)c3)ccc21 [Example 20]
tested_system: wild-type ALK2 (aa172-499) (Homo sapiens (Human))
log10 of IC50: 2.04
--
compound: CN1C(=O)Cc2cc(-c3cncc(-c4ccc(=O)n(C5CCCC5)c4)c3)ccc21 [Example 8]
tested_system: wild-type ALK2 (aa172-499) (Homo sapiens (Human))
log10 of IC50: 2.30
--
compound: CC1C(=O)Nc2cc(-c3cncc(-c4ccc(=O)n(C(C)C)c4)c3)ccc21 (centres unmarked) [Example 33]
tested_system: wild-type ALK2 (aa172-499) (Homo sapiens (Human))
log10 of IC50: 2.26
--
compound: CC(C)n1cc(-c2cncc(-c3ccc4c(c3)N(C)C(=O)C4)c2)ccc1=O [Example 26]
tested_system: wild-type ALK2 (aa172-499) (Homo sapiens (Human))
log10 of IC50: 2.85
